- target-entity: SSTR4 (Homo sapiens)
- Sequence (P31391 whole entry): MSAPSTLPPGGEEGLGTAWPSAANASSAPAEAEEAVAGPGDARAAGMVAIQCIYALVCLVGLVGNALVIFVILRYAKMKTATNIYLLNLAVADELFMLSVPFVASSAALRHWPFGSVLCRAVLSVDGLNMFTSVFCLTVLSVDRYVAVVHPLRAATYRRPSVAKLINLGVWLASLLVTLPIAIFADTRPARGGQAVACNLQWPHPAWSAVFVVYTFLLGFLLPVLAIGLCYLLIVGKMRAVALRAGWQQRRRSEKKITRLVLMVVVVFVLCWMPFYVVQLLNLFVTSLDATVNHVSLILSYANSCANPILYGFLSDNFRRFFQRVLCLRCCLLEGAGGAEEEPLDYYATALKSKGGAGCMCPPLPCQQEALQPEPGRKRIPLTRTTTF
- protocol-text: SSTR4 I-125 somatostatin competition binding assay (CHO-K1 membranes)
- Parameters: host or cells: CHO-K1
- run-parameters: competition with I-125 labeled somatostatin, membranes from CHO-K1 overexpressing SSTR4; read-out: SSTR4 Binding pIC50 (converted)
readout-kind: IC50 (µM)
Numbers only here, please. The scale is µM.

See these solved cases before continuing.
CC(c1ccc(F)cc1)c1ncc(C(N)=O)nc1NCCN1CCCC1 (centres unmarked) | 0.49
Cc1nc(NCCN2CCCC2)c(C(C)c2ccc(F)cc2)nc1C(=O)NC1CC1 (centres unmarked) | 0.0145
CC(c1ccc(F)cc1)c1ncc(C(=O)N(C)C)nc1NCCN1CCCC1 (centres unmarked) | 0.389
Cc1nc(N[C@@H]2CCN(C)C[C@H]2C)c(Cc2ccc(F)cc2)nc1C(N)=O (racemic) | 0.129
C[C@H](c1ccc(F)cc1)c1nc(C(=O)N2CCCC2)cnc1NCCN1CCCC1 | 0.141
CO[C@H]1CCN(C(=O)c2nc(C(C)c3ccc(F)cc3)c(NCCN3CCCC3)nc2C)C1 (some centres unmarked) | 0.0316
Cc1nc(NCCN2CCCC2)c(C(C)c2ccc(F)cc2)nc1C(=O)N[C@H]1CCOC1 (some centres unmarked) | 0.135
CO[C@H]1C[C@H](NC(=O)c2nc(C(C)c3ccc(F)cc3)c(NCCN3CCCC3)nc2C)C1 (some centres unmarked) | 0.0316
CCN(C)C(=O)c1nc(C(C)c2ccc(F)cc2)c(NCCN2CCCC2)nc1C (centres unmarked) | 0.0182
C[C@H](c1ccc(F)cc1)c1nc(C(N)=O)cnc1N[C@@H]1CCN(C)C1 (single isomer, unassigned) | 0.912

Problem: Provide the documented IC50 with SSTR4 (Homo sapiens) as the system for "Cc1cccc(Cc2nc(C(N)=O)c(C)nc2NCCN2CCCC2)c1"
Solution: 0.0234

Problem: And for "Cc1cccc(Cc2nc(C(=O)N(C)C)c(C)nc2NCCN2CCCC2)c1" ?
Solution: 0.0417

Problem: Cc1nnc([C@H](C)c2ccccc2)c(NCCN2CCC2)n1 (single isomer, unassigned) , same question.
Solution: 0.603
